biological target: HIV-1 reverse transcriptase (RT) (HIV-1, UniProt P04585;P04585 P04585:588-1147,P04585:588-1027); test: EMSA; 50 mM KCl, 25 mM NaCl, 5% glycerol, BSA, 25 C
Consider the following binders; for each one, report its Kd.
Numbers only, in nM.

> print(dat)
                                     binder  property  reportedmeasurement
1  aptamer 80.55,65 (ssRNA) RNA: AGCUCGAGCUCGAAUUCAUUUAAUUCCAUAAUGGCUCACCACAAGGGGAACGUUGAUGAAAUAGGGCCCGGAUCCGUC        Kd                  129
2  aptamer 70.28t34 (ssRNA) RNA: AGCUCGAGCUCGAAUUCGGGAACCGGACGGGUGAGAACCGAGACAAACACCGGGCCCGGAUCCGUC        Kd                  219
3  aptamer 70.15 (ssRNA) RNA: AGCUCGAGCUCGAAUUCCCUACGAACCCAGGAGAUAAGGGGGAAAACUCUGGAAAACGGGCCCGGAUCCGUC        Kd                   63

// below: Kd requested for another binder
Data request, read-out Kd, for aptamer 1.1 (ssRNA) RNA: AGCUCGAGCUCGAAUUCGGGAGAUUCCGUUUUCAGUCCGGGAAAAACUGAAGGGCCCGGAUCCGUC
270
